Examples of molecules with documented body temperature, t = 90 min follow.
Tested on: rats
Test: Antipyretic activity, E. coli suspension as pyrogen
Assay type: in vivo
Details: 150 mg/kg transdermally; in °C (unit assumed)
The answer should be a number; do not append a unit.

Here is how some molecules turned out for body temperature, t = 90 min.
Task item: Report body temperature, t = 90 min, nothing else, for this molecule: CCN(CC)CCOC(=O)c1ccccc1OC(C)=O [diethylaminoethyl acetylsalicylate.AcOH]
Reply: 36.27

Task item: Report body temperature, t = 90 min, nothing else, for this molecule: CC(=O)O.CCN(CC)CCOC(=O)c1ccccc1O [diethylaminoethyl salicylate.AcOH]
Reply: 36.55

Task item: Report body temperature, t = 90 min, nothing else, for this molecule: CC(=O)O.CCN(CC)CCOC(=O)c1ccccc1OC(=O)c1ccccc1O [diethylaminoethyl salicylsalicylate.AcOH]
Reply: 36.45

Task item: Report body temperature, t = 90 min, nothing else, for this molecule: CC(=O)O.CCN(CC)CCOC(=O)c1cc(-c2ccc(F)cc2F)ccc1O
Reply: 36.20

Continuing:
Task item: Report body temperature, t = 90 min, nothing else, for this molecule: CC(=O)O.CCN(CC)CCOC(=O)C(C)c1ccc(CC(C)C)cc1 (centres unmarked)
Reply: 36.25

---

Test system: mice
Experiment: Analgesic activity, acetic acid writhing
Format: in vivo
Settings: 100 mg/kg transdermally, 30 min before acetic acid
Outcome Measure: No. of Writhing
The answer should be a number; do not append a unit.

Here is how some molecules turned out for No. of Writhing.
Task item: Report No. of Writhing, nothing else, for this molecule: CC(=O)O.CCN(CC)CCOC(=O)C(C)c1ccc(N2Cc3ccccc3C2=O)cc1 (stereo not drawn)
Reply: 13.2

Task item: Report No. of Writhing, nothing else, for this molecule: CC(=O)O.CCN(CC)CCOC(=O)C1CCc2cc(C3CCCCC3)c(Cl)cc21 (stereo not drawn)
Reply: 15.2

Continuing:
Task item: Report No. of Writhing, nothing else, for this molecule: CC(=O)O.CCN(CC)CCOC(=O)Cc1cccc(C(=O)c2ccccc2)c1N
Reply: 13.8

Task item: Report No. of Writhing, nothing else, for this molecule: CC(=O)O.CCN(CC)CCOC(=O)C(C)c1ccc(CC(C)C)cc1 (stereo not drawn)
Reply: 9.8

Task item: Report No. of Writhing, nothing else, for this molecule: CC(=O)O.CCN(CC)CCOC(=O)C(C)c1ccc2c(c1)CC(=O)c1ccccc1S2 (stereo not drawn)
Reply: 14.2

Task item: Report No. of Writhing, nothing else, for this molecule: CC(=O)O.CCN(CC)CCOC(=O)Cc1cc(C)c(C(=O)c2ccc(Cl)cc2)n1C
Reply: 15.6

Task item: Report No. of Writhing, nothing else, for this molecule: CC(=O)O.CCN(CC)CCOC(=O)Cc1c(C)n(C(=O)c2ccc(Cl)cc2)c2ccc(OC)cc12
Reply: 15.6

Task item: Report No. of Writhing, nothing else, for this molecule: CC(=O)O.CCN(CC)CCOC(=O)C(C)c1ccc2oc(-c3ccc(Cl)cc3)nc2c1 (stereo not drawn)
Reply: 17.1

Task item: Report No. of Writhing, nothing else, for this molecule: CC(=O)O.CCc1cccc2c3c([nH]c12)C(CC)(CC(=O)OCCN(CC)CC)OCC3 (stereo not drawn)
Reply: 14.0

---

Assay: Distribution of prodrug and metabolites in tissues after application to the back of killed rats
Format: in vivo
Conditions: Wistar, rat, 50 mg/kg, 3 h after 50 mg/kg prodrug citric acid salt on the back of killed rat, 37° C.; read-out: amount in Plasma
Outcome Measure: concentration at 3 h (µg/mL)
Answer in µg/mL, number only, no unit symbol.

Task item: Report concentration at 3 h, nothing else, for this molecule: O=C(O)c1ccccc1O
Reply: 65

---

Examples of molecules with documented LD50 of HPP follow.
System: rat
Conditions: rat, in vivo
Answer in mg/kg, number only, no unit symbol.

Task item: Report LD50 of HPP, nothing else, for this molecule: CC(=O)O.CCN(CC)CCOC(=O)Cc1ccc(C(=O)c2ccc(C)cc2)n1C
Reply: 600

Task item: Report LD50 of HPP, nothing else, for this molecule: CC(=O)O.CCN(CC)CCOC(=O)Cc1ccccc1Nc1c(Cl)cccc1Cl
Reply: 800

Task item: Report LD50 of HPP, nothing else, for this molecule: CC(=O)O.CCN(CC)CCOC(=O)Cc1cc(C)c(C(=O)c2ccc(Cl)cc2)n1C
Reply: 200

Continuing:
Task item: Report LD50 of HPP, nothing else, for this molecule: CC(=O)O.CCN(CC)CCOC(=O)COC(=O)Cc1c(C)n(C(=O)c2ccc(Cl)cc2)c2ccc(OC)cc12
Reply: 1200

Task item: Report LD50 of HPP, nothing else, for this molecule: CC(=O)O.CN(C)CCOC(=O)Cc1ccccc1Nc1c(Cl)cccc1Cl
Reply: 700

Task item: Report LD50 of HPP, nothing else, for this molecule: CC(=O)O.CCN(CC)CCOC(=O)C(C)c1ccc2c(c1)Cc1cccnc1O2 (stereo not drawn)
Reply: 750

---

Test system: rats
Assay: Antipyretic activity, E. coli suspension as pyrogen
Type: in vivo
Details: 25 mg/kg transdermally; in °C (unit assumed)
Outcome Measure: body temperature, t = 0 min
The answer should be a number; do not append a unit.

Here is how some compounds turned out for body temperature, t = 0 min.
Task item: Report body temperature, t = 0 min, nothing else, for this compound: CN(C)CCCC(=O)OC1=C(C(=O)Nc2ccccn2)N(C)S(=O)(=O)c2ccsc21.Cl
Reply: 37.54

Task item: Report body temperature, t = 0 min, nothing else, for this compound: CN(C)CCCC(=O)OC1=C(C(=O)Nc2ccccn2)N(C)S(=O)(=O)c2ccccc21.Cl
Reply: 37.57

Task item: Report body temperature, t = 0 min, nothing else, for this compound: Cc1cnc(NC(=O)C2=C(OC(=O)CCCN(C)C)c3ccccc3S(=O)(=O)N2C)s1.Cl
Reply: 37.57

Now look at this entry.
Task item: Report body temperature, t = 0 min, nothing else, for this compound: CN(C)CCCC(=O)OC1=C(C(=O)Nc2ccccn2)N(C)S(=O)(=O)c2cc(Cl)sc21.Cl
Reply: 37.55

---

Examples of molecules with documented body temperature, t = 180 min follow.
System: rats
Assay: Antipyretic activity, E. coli suspension as pyrogen
Type: in vivo
Conditions: 25 mg/kg transdermally; in °C (unit assumed)
The answer should be a number; do not append a unit.

Here is how some molecules turned out for body temperature, t = 180 min.
Task item: Report body temperature, t = 180 min, nothing else, for this molecule: CN(C)CCCC(=O)OC1=C(C(=O)Nc2ccccn2)N(C)S(=O)(=O)c2ccsc21.Cl
Reply: 36.58

Task item: Report body temperature, t = 180 min, nothing else, for this molecule: Cc1cnc(NC(=O)C2=C(OC(=O)CCCN(C)C)c3ccccc3S(=O)(=O)N2C)s1.Cl
Reply: 36.52

Task item: Report body temperature, t = 180 min, nothing else, for this molecule: CN(C)CCCC(=O)OC1=C(C(=O)Nc2ccccn2)N(C)S(=O)(=O)c2ccccc21.Cl
Reply: 36.40

Now look at this entry.
Task item: Report body temperature, t = 180 min, nothing else, for this molecule: CN(C)CCCC(=O)OC1=C(C(=O)Nc2ccccn2)N(C)S(=O)(=O)c2cc(Cl)sc21.Cl
Reply: 36.60

---

Tested on: rats
Test: Antipyretic activity, E. coli suspension as pyrogen
Format: in vivo
Conditions: 100 mg/kg orally; in °C (unit assumed)
Method: Rats are administered with sterilized E. coli suspension as a pyrogen. Each group of rats are administered with a prodrug compounds or parent compounds at a dosage specified below. The prodrug compounds are administered either orally or transdermally. The parent compounds are administered orally.
Examples of compounds with documented body temperature, t = 270 min follow.
The answer should be a number; do not append a unit.

Task item: Report body temperature, t = 270 min, nothing else, for this compound: CC(=O)Oc1ccccc1C(=O)O [Aspirin, acetylsalicylic acid, reference compound]
Reply: 36.81

Task item: Report body temperature, t = 270 min, nothing else, for this compound: CC(=O)O.CCN(CC)CCOC(=O)C(C)c1ccc(CC(C)C)cc1 (centres unmarked)
Reply: 36.45

Task item: Report body temperature, t = 270 min, nothing else, for this compound: O=C(O)c1cc(-c2ccc(F)cc2F)ccc1O [Diflunisal, 5-(2,4-difluorophenyl) salicylic acid, reference compound]
Reply: 36.78

Task item: Report body temperature, t = 270 min, nothing else, for this compound: CC(C)Cc1ccc(C(C)C(=O)O)cc1 (centres unmarked) [Ibuprofen, 2-(ρ-isobutylphenyl) propionic acid, reference compound]
Reply: 36.78

Continuing:
Task item: Report body temperature, t = 270 min, nothing else, for this compound: CCN(CC)CCOC(=O)c1ccccc1OC(C)=O [diethylaminoethyl acetylsalicylate.AcOH]
Reply: 36.40

---

Examples of compounds with documented Peak plasma concentration of parent compound after prodrug compound follow.
Assay: Plasma levels after transdermal administration to hairless mice
Format: in vivo
Details: mouse, in vivo
Quick note: unit goes after the number.

Here is how some compounds turned out for Peak plasma concentration of parent compound after prodrug compound.
Task item: Report Peak plasma concentration of parent compound after prodrug compound, nothing else, for this compound: CC(=O)O.CCN(CC)CCOC(=O)c1cccnc1Nc1cccc(C(F)(F)F)c1
Reply: 20 mg/L

Task item: Report Peak plasma concentration of parent compound after prodrug compound, nothing else, for this compound: CC(=O)O.CCN(CC)CCOC(=O)C(C)c1ccc2c(c1)Cc1cccnc1O2 (centres unmarked)
Reply: 2000 mg/L

Task item: Report Peak plasma concentration of parent compound after prodrug compound, nothing else, for this compound: CC(=O)O.CCN(CC)CCOC(=O)c1ccccc1Nc1cccc(C)c1C
Reply: 20 mg/L

Task item: Report Peak plasma concentration of parent compound after prodrug compound, nothing else, for this compound: CC(=O)O.CCN(CC)CCOC(=O)CC1=C(C)/C(=C/c2ccc([S+](C)[O-])cc2)c2ccc(F)cc21 (centres unmarked)
Reply: 20 mg/L

Now look at this entry.
Task item: Report Peak plasma concentration of parent compound after prodrug compound, nothing else, for this compound: C=C(C)CNc1ccc(C(C)C(=O)OCCN(CC)CC)cc1.CC(=O)O (centres unmarked)
Reply: 2000 mg/L
